Molecular target: T1, His-tagged ILT4 protein extracellular domain: ILT4-His (human, UniProt Q8N423 22-460)
T1 construct: Expressed in 293 cells; also called human ILT4-His protein
T1 sequence (Q8N423 other isoform, or with tags, fused parts or gaps limits assumed): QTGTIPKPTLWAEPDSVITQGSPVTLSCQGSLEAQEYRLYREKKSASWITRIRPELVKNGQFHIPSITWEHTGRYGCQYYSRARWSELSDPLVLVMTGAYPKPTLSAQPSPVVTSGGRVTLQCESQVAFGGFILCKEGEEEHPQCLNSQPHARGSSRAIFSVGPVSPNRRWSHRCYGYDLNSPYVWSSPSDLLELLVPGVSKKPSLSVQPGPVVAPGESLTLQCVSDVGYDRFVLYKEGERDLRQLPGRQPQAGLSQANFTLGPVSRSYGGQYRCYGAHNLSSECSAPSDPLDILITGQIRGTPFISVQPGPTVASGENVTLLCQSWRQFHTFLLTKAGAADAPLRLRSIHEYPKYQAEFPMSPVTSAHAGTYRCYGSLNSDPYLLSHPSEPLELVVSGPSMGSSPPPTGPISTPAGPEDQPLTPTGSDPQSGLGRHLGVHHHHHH
Assay: screening of chimeric antibodies (ILT4 protein binding, cell binding, ILT4/HLA-G blocking)
value.type: binding result

INSERT INTO assay_data (binder, value_type, observed) VALUES
  ('chimeric antibody ChP2-C7 (antibody, human IgG4 S228P, kappa, F234A L235A, V domains shown, Murine variable regions with hIgG4(LALA) and CL constant regions; also called M P2-C7) VH: EVQLQQSGPELVKPGTSVKMSCKASGYTFTDYSMHWVRQSHGKSLEWIGYFNPNNGDTIYNQKFKGKATLTVNKSSSTAYMELRSLTSDDSAVYYCAREDSVSTNAWDGALDYWGQGTSVTVSS VL: DIQMTQSPASLSVSVGETVTITCRTSENIYSNLAWYQQKQGKSPQLLVYGATNLADGVPSRFSGSGSGTQYSLKINSLQSEDFGSYYCQHFWDIPWTFGGGTTLEIKR', 'binding result', 'binds'),
  ('chimeric antibody ChP2-C10 (antibody, human IgG4 S228P, kappa, F234A L235A, V domains shown, Murine variable regions with hIgG4(LALA) and CL constant regions; also called M P2-C10) VH: QVQLQQPGAELVKPGASVKLSCKASGYTFTSYWMHWVKQRPGQGLEWIGVIHPNSDTTNYNEKFKNKATLTVDKSSSTAYMQLSSLTSEDSAVYYCATRYDYAYYAMDYWGQGTSVTVSS VL: DIVMTQSHKFMSTSVGDRVSITCKASQDVTTAVAWYQQKPGQSPKLLIYSASYRYTGVPDRFTGSGSGTDFTFTISSVQAEDLAVYHCQQHYSTSPTFGGGTMLEIKR', 'binding result', 'binds'),
  ('chimeric antibody ChP1-G7 (antibody, human IgG4 S228P, kappa, F234A L235A, V domains shown, Murine variable regions with hIgG4(LALA) and CL constant regions; also called M P1-G7) VH: DVQLQESGPGLVKPSQSLSLTCSVTGYSITSGYYWNWIRQFPENKLEWMGYISYDGGNNYNPFLKNRISITRDTSKNQFFLNLNSVTIEDTATYYCAREGGSSWEYYGMDYWGQGTSVTVSS VL: DIQMTQSPASLSVSVGETVTITCRASENIYRNLAWYQQKQGHSPQLLLYAATNLADGVPSRFSGSGSGTQYSLKINSLQSEDFGSYYCQQFWGSPYTFGGGTKLEIKR', 'binding result', 'binds');
